# Test system: Huh-7
# ASSAY_PROCEDURE: Cytotoxicity panel, Huh-7
# CONDITION_DETAILS: read-out: Cytotoxicity (CC50 uM) Huh-7; Huh-7
Assignment: determine reported CC50 for the given molecules.

| MOLECULE | CC50 |
| --- | --- |
| CC(C)OC(=O)[C@H](C)NP(=O)(OC[C@H]1O[C@@H](n2ccc(=O)[nH]c2=S)[C@](C)(O)C1O)Oc1ccccc1 (some centres unmarked) [ENUC-01911-2] | > 400 µM |

Consider now this further molecule.
Task: Name the reported CC50 value associated with the molecule CC(C)OC(=O)[C@H](C)NP(=O)(OC[C@H]1O[C@@H](n2ccc(=O)[nH]c2=S)[C@](C)(O)C1O)Oc1ccccc1 (some centres unmarked) [ENUC-01911]
Output: > 400 µM

* * *

# ASSAY_PROCEDURE: Cytotoxicity panel, CEM
# CONDITION_DETAILS: human, CEM cells, Cytotoxicity (CC50 uM) CEM
MEASURED_ENDPOINT: CC50

// worked examples, CC50 included
| COMPOUND | OBSERVED_MEASUREMENT |
| --- | --- |
| CC(C)OC(=O)[C@H](C)NP(=O)(OC[C@@]1(N=[N+]=[N-])O[C@@H](n2ccc(=S)[nH]c2=O)[C@@H](O)C1O)Oc1ccccc1 (stereo partly drawn) | 229 µM |
| CC(C)OC(=O)[C@H](C)N[P@@](=O)(OC[C@H]1O[C@@H](n2ccc(=O)[nH]c2=S)[C@](C)(O)C1O)Oc1ccccc1 (stereo partly drawn) | > 400 µM |

Consider now this further compound.
Task: Name the reported CC50 value associated with the compound C[C@@]1(F)C(O)[C@@H](CO)O[C@H]1n1ccc(=S)[nH]c1=O (stereo partly drawn)
Output: > 400 µM

* * *

Assignment: determine reported CC50 for the given compounds.
# ASSAY_PROCEDURE: Cytotoxicity panel, Huh-7
# CONDITION_DETAILS: human, Huh-7 cells, Cytotoxicity (CC50 uM) Huh-7, Huh-7

// worked examples, CC50 included
| COMPOUND | CC50 |
| --- | --- |
| CC(C)OC(=O)[C@H](C)NP(=O)(OC[C@H]1O[C@@H](n2ccc(=S)[nH]c2=O)[C@](C)(O)C1O)Oc1ccccc1 (stereo partly drawn) | > 400 µM |
| CC(C)OC(=O)[C@H](C)N[P@](=O)(OC[C@H]1O[C@@H](n2ccc(=O)[nH]c2=S)[C@](C)(O)C1O)Oc1ccccc1 (stereo partly drawn) | 252 µM |

Please give CC50 for each item listed below.
1. C[C@@]1(O)C(O)[C@@H](COP(=O)(O)O)O[C@H]1n1ccc(=O)[nH]c1=S (stereo partly drawn)
2. CC(C)OC(=O)[C@H](C)NP(=O)(OC[C@H]1O[C@@H](n2ccc(=O)[nH]c2=S)[C@@H](O)C1O)Oc1ccccc1 (stereo partly drawn)
3. CC(C)OC(=O)[C@H](C)N[P@](=O)(OC[C@H]1O[C@@H](n2ccc(=O)[nH]c2=O)[C@](C)(F)C1O)Oc1ccccc1 (stereo partly drawn)

Output:
1: > 400 µM; 2: > 400 µM; 3: 279 µM

Task: Name the reported CC50 value associated with the compound C[C@H](NP(=O)(O)OC[C@H]1O[C@@H](n2ccc(=O)[nH]c2=S)[C@](C)(O)C1O)C(=O)O (stereo partly drawn)
Output: > 400 µM
